- Tested on: T-47D breast
- ASSAY NOTES: NCI tumour cell line growth inhibition, 48 h
Below, each of the molecules is paired with its reported TGI value.
Number in µM, nothing else.

Example entries and their recorded answers appear below.
- MOLECULE: "ClCc1cccc(CSc2ncnc3c2ncn3Cc2cccc(CCl)c2)c1"
  TGI, µM: 5.12
- MOLECULE: "CC1CN=C(c2cccc(-c3nc(-c4cccc(C5=NCC(C)N5)c4)nc(N(C)C)n3)c2)N1 (centres undefined)"
  TGI, µM: 15.1
- MOLECULE: "C[C@]12CCNC(=O)C=C1CC[C@@H]1C2CC[C@@]2(C)C1CC[C@@H]2OC(=O)COc1ccc(N(CCCl)CCCl)cc1 (some centres undefined)"
  TGI, µM: 9.03

Q: Need TGI, item CCCCCCCC(=O)OCC(=O)[C@]1(O)Cc2c(O)c3c(c(O)c2[C@@H](OC2CC(N)C(O)C(C)O2)C1)C(=O)c1c(OC)cccc1C3=O (some centres undefined)
Ans: 1.2

====

- Test system: NCI-H226 lung
- ASSAY NOTES: NCI tumour cell line growth inhibition, 48 h
METRIC NAME: TGI

Example entries and their recorded answers appear below.
- SAMPLE SMILES: "Cc1cccc2c(N)c3cccc(C(=O)NCC[N+]4(Cc5ccc([N+](=O)[O-])cc5)CCOCC4)c3nc12"
  TGI: "> 100 µM"
- SAMPLE SMILES: "CC[N+](C)(CC)CC(C)(C)C(=O)/C=C/c1ccc(/C=C/C(=O)C(C)(C)C[N+](C)(CC)CC)cc1"
  TGI: "> 100 µM"
- SAMPLE SMILES: "O=C(NNS(=O)(=O)c1ccccc1)c1cccnc1"
  TGI: "> 100 µM"
- SAMPLE SMILES: "COc1ccc(C(=O)N/N=C/c2c(C)n(C)n(-c3ccccc3)c2=O)cc1"
  TGI: "> 100 µM"
- SAMPLE SMILES: "O=c1oc2ccc(-c3ccc(F)cc3F)cc2c(=O)n1-c1ccc(Cl)c(C(F)(F)F)c1"
  TGI: "6.11 µM"

Field: next compound
Q: Return TGI measured with NCI-H226 lung given this compound: CC/C=C/C[C@H](O)[C@H]1C[C@H]2O[C@H](CC(=O)OC)C[C@H]2O1
Ans: > 100 µM

====

- Test system: M14 melanoma
- ASSAY NOTES: NCI tumour cell line growth inhibition, 48 h
METRIC NAME: TGI

Example entries and their recorded answers appear below.
- MOLECULE: "O=C(N/N=C/c1cc(Cl)cc(Cl)c1[O-])c1ccccc1.O=C(N/N=C/c1cc(Cl)cc(Cl)c1[O-])c1ccccc1.[Co+2]"
  ASSAYED SYSTEM: "M14 melanoma"
  METRIC NAME: "TGI"
  RESULT: "78.3 µM"
- MOLECULE: "Cc1cc(=O)[nH]c(CNC(=O)c2cccc(C(=O)NCc3cc(=O)[nH]c(C)n3)c2)n1"
  ASSAYED SYSTEM: "M14 melanoma"
  METRIC NAME: "TGI"
  RESULT: "> 100 µM"
- MOLECULE: "COC(=O)[C@@H]1CC(C(CN)c2cn(C(=O)OC(C)(C)C)c3ccccc23)C(=O)N1C(=O)OC(C)(C)C (some centres undefined)"
  ASSAYED SYSTEM: "M14 melanoma"
  METRIC NAME: "TGI"
  RESULT: "> 100 µM"
- MOLECULE: "O=C(CCc1nnc2s/c(=C\\c3ccccc3Cl)c(=O)n12)Nc1cc(Cl)ccc1Cl"
  ASSAYED SYSTEM: "M14 melanoma"
  METRIC NAME: "TGI"
  RESULT: "> 100 µM"

Q: Need TGI, item C#CCN(C(=O)C(F)(F)F)c1ccc(C(=O)c2ccc(N(CC#C)C(=O)C(F)(F)F)cc2)cc1
Ans: > 100 µM

Q: Next molecule up: N#Cc1ccc2cc3c(cc2c1)OCO3
Ans: > 100 µM

Q: Next molecule up: COc1nc2c(c(=O)n1C)N=C(c1ccc(Cl)cc1)CC(c1ccccc1)N2 (centres undefined)
Ans: > 100 µM

Q: Next molecule up: Cc1ccc2oc3c(c(Br)c(Br)n3C)c(=O)c2c1
Ans: > 100 µM

Q: Next molecule up: O=S(=O)(Nc1ccc(F)c(Cl)c1)c1ccc(-c2cnc(C3CC3)o2)cc1
Ans: 7.13 µM

The measurements presented in this section are drawn from PubChem BioAssay (NCI).
